# assay_details: in vivo
# cond: male, Sprague Dawley, rat, po, 30 mg/kg
reported_endpoint: Cmax (ng/mL)
Give just the numeric value; ng/mL need not be written.

Please report the measured Cmax for Cc1ccc(NC(=O)c2ccc(CN3CCN(C)CC3)cc2)cc1Nc1nccc(-c2cccnc2)n1 [Imatinib, reference compound] 6400
